Biological target: c-kit (Homo sapiens, UniProt P10721)
Construct: MO7e (human megakaryocytic leukemia cell line) which had been arrested for 20 hr; endogenous in cells; host or cells: MO7e human megakaryocytic leukemia cell line
Sequence (P10721 26-976): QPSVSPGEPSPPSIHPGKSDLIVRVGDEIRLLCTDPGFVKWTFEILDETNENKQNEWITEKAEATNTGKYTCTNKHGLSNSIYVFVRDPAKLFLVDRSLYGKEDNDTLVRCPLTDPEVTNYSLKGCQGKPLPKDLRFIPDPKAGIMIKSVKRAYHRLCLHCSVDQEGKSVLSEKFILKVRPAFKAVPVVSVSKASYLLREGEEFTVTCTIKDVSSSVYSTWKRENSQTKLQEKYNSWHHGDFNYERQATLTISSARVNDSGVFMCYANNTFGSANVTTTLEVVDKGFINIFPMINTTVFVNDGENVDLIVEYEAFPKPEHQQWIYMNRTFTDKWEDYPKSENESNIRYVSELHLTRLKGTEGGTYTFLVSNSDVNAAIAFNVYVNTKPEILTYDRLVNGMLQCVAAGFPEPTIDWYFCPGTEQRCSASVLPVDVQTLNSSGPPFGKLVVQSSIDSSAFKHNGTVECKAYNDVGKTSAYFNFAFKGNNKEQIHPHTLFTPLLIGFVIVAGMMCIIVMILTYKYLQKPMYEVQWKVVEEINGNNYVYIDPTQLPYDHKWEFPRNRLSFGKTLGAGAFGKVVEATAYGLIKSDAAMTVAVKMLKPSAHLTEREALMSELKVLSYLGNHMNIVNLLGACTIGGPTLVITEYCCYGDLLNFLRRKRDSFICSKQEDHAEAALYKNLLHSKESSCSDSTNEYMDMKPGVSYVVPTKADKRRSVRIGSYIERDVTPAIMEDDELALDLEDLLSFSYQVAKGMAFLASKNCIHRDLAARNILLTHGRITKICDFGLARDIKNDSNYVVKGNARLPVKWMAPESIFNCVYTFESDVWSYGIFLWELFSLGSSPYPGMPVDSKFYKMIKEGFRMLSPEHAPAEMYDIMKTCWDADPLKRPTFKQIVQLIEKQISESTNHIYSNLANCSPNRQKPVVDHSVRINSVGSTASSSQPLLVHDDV
Experiment: Inhibitory activity against c-kit autophosphorylation (MO7e cells, h-SCF)
Type: cell-based
Details: MO7e cells, 50 ng/ml h-SCF; read-out: c-kit IC50
quantity.measured: pIC50
# reply with the number alone; pIC50 is -log10 of concentration in mol/L

These recorded examples may help you get a feel for the data.
INSERT INTO measurements (smiles_notation, quantity_measured, test_value) VALUES
  ('COc1ccccc1COC(=O)Nc1ccc(Oc2ncnc3cc(OC)c(OC)cc23)cc1OC', 'pIC50', 6.70),
  ('CCN(CC)CCNC(=O)Nc1ccc(Oc2ccnc3cc(OC)c(OC)cc23)cc1Cl', 'pIC50', 6.38);

Can you share its pIC50? I mean this compound: "COc1cc2ncnc(Oc3ccc(NC(=S)NC(=O)CCc4ccc(C)cc4)cc3)c2cc1OC"
7.07

Can you share its pIC50? I mean this compound: "COc1cc2nccc(Oc3ccc(NC(=O)OCCCN4CCOCC4)cc3)c2cc1OC"
7.47

Can you share its pIC50? I mean this compound: "COc1cccc(OCCCOc2ccc(Oc3ccnc4cc(OC)c(OC)cc34)cc2)c1"
6.47

* * *

Target: c-kit (Homo sapiens, UniProt P10721)
Construct: MO7e (human megakaryocytic leukemia cell line) which had been arrested for 20 hr; endogenous in cells; host or cells: MO7e human megakaryocytic leukemia cell line
Assay: Inhibitory activity against c-kit autophosphorylation (MO7e cells, h-SCF)
Format: cell-based
Details: Mo7e, figure within parentheses in −( ) or >1000( ); at 1000 nM
Protocol: Inhibitory Activity Against c-kit Autophosphorylation MO7e (human megakaryocytic leukemia cell line) which had been arrested for 20 hr was seeded into 96 well plates at an amount of 2×10^5 per well. A solution of a test compound in DMSO was added, and a reaction was then allowed to proceed for one hr. Thereafter, the cells were stimulated by 50 ng/ml of h-SCF for 5 min, followed by replacement with lysate buffer to solubilize the cells. […]
Criterion: inhibition at 1 µM meeting or surpassing 40%. Met: True. Not met: False.

Take a look at these entries with their results.
INSERT INTO results (molecule, target, label_value) VALUES
  ('COc1cc2nccc(Oc3ccc(NC(=O)NC4CCN(Cc5ccccc5)CC4)cc3C)c2cc1OC [Example 642]', 'c-kit (Homo sapiens, UniProt P10721)', 'False'),
  ('COc1cc2nccc(Oc3cc(C)c(NC(=S)NCCCN4CCN(C)CC4)cc3C)c2cc1OC [Example 556]', 'c-kit (Homo sapiens, UniProt P10721)', 'False');

Could you verify whether the entry COc1cc2nccc(Oc3ccc(NC(=O)NCCN(C(C)C)C(C)C)c(C)c3C)c2cc1OC [Example 655] shows inhibition at 1 µM of no less than 40%?
True

* * *

Target: c-kit (Homo sapiens, UniProt P10721)
Construct: MO7e (human megakaryocytic leukemia cell line) which had been arrested for 20 hr; endogenous in cells; host or cells: MO7e human megakaryocytic leukemia cell line
Assay: Inhibitory activity against c-kit autophosphorylation (MO7e cells, h-SCF)
Type: cell-based
Conditions: MO7e cells, h-SCF 50 ng/ml; read-out: c-kit IC50
quantity.measured: IC50

These recorded examples may help you get a feel for the data.
INSERT INTO results (smiles_notation, quantity_measured, test_value) VALUES
  ('COc1cc2nccc(Oc3ccc(NC(=O)OCCCc4ccccc4)cc3)c2cc1OC', 'IC50', '41 nM'),
  ('COc1cc2ncnc(Oc3ccc(NC(=O)OCCCOc4ccccc4F)cc3)c2cc1OC', 'IC50', '< 30 nM');

Can you share its IC50? I mean this compound: "COc1cc2nccc(Oc3ccc(NC(=O)OCCCOc4ccccc4F)cc3)c2cc1OC"
< 30 nM

Data origin: patent US7135466B2
